Answer each item with its documented PBM binding z-score.
test system: FXR:RXRa (NR concentration 270 nM, RXRa partner concentration 90 nM); experiment: PBM binding z-score (relative to random genomic background probes); higher = stronger binding; sequences stand for … in GC…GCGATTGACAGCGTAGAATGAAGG
Answers are plain numbers.

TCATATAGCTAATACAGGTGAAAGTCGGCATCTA
0.322
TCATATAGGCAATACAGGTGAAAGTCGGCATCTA
1.06

Return reported PBM binding z-score values for all items listed beneath this line.
1. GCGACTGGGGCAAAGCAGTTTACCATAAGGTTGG
2. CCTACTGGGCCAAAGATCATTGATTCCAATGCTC
3. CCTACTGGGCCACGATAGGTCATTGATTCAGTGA
4. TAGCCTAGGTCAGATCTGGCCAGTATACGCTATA

Result:
[-0.303, -0.285, 0.91, 1.53]

Batch of 6 sequences: report PBM binding z-score for each.
1. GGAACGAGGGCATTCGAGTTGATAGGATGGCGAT
2. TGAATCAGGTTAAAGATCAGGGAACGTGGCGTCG
3. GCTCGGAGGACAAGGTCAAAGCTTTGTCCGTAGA
4. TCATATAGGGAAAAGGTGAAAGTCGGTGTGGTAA
5. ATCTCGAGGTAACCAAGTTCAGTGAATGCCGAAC
6. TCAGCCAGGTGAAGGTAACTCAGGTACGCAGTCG

Result:
[1.38, 0.631, 4.6, 1.4, 0.65, 0.00852]

###

system: PPARg:RXRa (NR concentration 180 nM, RXRa partner concentration 90 nM); experiment: PBM binding z-score (relative to random genomic background probes); higher = stronger binding; sequences stand for … in GC…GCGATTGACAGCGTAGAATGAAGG
Note to self: class = bucket of PBM binding z-score, per one: < 1; two: ≥ 1 and < 4; three: ≥ 4

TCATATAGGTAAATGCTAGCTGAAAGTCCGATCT
one
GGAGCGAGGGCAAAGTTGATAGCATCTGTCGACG
two
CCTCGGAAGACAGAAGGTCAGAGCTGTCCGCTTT
one
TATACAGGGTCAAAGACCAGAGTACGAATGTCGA
three
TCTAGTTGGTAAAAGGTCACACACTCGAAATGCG
three

Problem: Sort into band: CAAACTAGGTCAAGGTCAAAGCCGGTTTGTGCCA
Result: three

Problem: Into which category would you place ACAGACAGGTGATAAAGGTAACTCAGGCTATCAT ?
Result: two

Problem: Given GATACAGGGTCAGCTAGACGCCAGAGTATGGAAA , name the class its PBM binding z-score places it in.
Result: two

###

system: LXRa:RXRa (NR concentration 270 nM, RXRa partner concentration 90 nM); test: PBM binding z-score (relative to random genomic background probes); higher = stronger binding; sequences stand for … in GC…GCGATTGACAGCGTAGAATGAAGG
Outcome: Met for PBM binding z-score of at least 5; Not met for anything lower.

Problem: Decide: is the reported value of PBM binding z-score for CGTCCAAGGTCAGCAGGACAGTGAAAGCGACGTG equal to or greater than 5?
Result: Not met

Problem: Can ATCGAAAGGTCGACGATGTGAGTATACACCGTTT be said to have PBM binding z-score at or above 5?
Result: Not met

Problem: For this sequence, is measured PBM binding z-score 5 or higher? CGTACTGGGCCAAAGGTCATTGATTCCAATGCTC
Result: Met

Problem: Confirm if PBM binding z-score reported for the sequence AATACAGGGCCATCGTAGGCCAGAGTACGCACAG is 5 or above.
Result: Not met

###

tested on: RXRa homodimer (NR concentration 180 nM); experiment: PBM binding z-score (relative to random genomic background probes); higher = stronger binding; sequences stand for … in GC…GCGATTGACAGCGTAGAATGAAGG
Parameter threshold = 2. Response is true (1) when PBM binding z-score meets or exceeds it, else false (0).

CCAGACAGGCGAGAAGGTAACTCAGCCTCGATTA
false (0)
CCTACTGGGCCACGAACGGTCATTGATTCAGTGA
false (0)
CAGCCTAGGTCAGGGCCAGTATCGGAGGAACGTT
false (0)
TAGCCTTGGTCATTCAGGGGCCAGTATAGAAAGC
false (0)
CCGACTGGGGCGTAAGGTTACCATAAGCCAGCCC
false (0)
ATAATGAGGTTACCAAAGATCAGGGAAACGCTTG
true (1)
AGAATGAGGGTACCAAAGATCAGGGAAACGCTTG
false (0)
ACAGACAGGTGAGTGAGGGTAACTCAGCTGGACG
false (0)

Problem: State whether the measured PBM binding z-score reaches 2, counting equality as reaching it, for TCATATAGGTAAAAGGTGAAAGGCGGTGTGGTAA
Result: true (1)

Problem: Evaluate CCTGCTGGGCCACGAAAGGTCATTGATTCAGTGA : PBM binding z-score at minimum 2?
Result: true (1)

Problem: Please check the record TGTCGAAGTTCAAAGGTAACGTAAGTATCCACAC and state if its PBM binding z-score is at or above 2.
Result: true (1)

Problem: Entry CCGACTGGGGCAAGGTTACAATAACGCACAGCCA : is its PBM binding z-score no less than 2?
Result: false (0)

Problem: Test whether the sequence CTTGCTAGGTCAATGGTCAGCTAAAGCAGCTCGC records PBM binding z-score of 2 or higher.
Result: true (1)

Problem: # check: PBM binding z-score of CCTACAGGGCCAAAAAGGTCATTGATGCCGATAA is greater than or equal to 2
Result: true (1)

Problem: Determine whether measured PBM binding z-score meets or exceeds 2 for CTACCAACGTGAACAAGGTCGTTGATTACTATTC
Result: false (0)

Problem: Can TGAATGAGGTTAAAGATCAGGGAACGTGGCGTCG be said to have PBM binding z-score at or above 2?
Result: true (1)

###

test system: RARa:RXR (NR concentration 270 nM, RXRa partner concentration 90 nM); assay: PBM binding z-score (relative to random genomic background probes); higher = stronger binding; sequences stand for … in GC…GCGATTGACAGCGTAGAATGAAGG
Assign 1 to entries whose PBM binding z-score meets or exceeds 0.6; assign -1 to the rest.

Worked examples follow.
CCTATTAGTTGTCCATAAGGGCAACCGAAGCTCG
1
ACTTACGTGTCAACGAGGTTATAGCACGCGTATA
1

// switching to the query sequence
Problem: Given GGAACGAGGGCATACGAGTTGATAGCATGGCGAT , state whether its PBM binding z-score is at least 0.6.
Result: -1

###

tested on: LXRa:RXRa (NR concentration 270 nM, RXRa partner concentration 90 nM); assay: PBM binding z-score (relative to random genomic background probes); higher = stronger binding; sequences stand for … in GC…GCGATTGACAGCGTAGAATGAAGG
quantity: PBM binding z-score

Look over these answered cases.
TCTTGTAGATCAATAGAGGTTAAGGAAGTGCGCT
2.42
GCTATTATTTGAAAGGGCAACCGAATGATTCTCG
0.97
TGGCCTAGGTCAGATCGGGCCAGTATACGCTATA
0.419

We now examine a further sequence.
Problem: Request - read-out PBM binding z-score | tested on LXRa:RXRa (NR concentration 270 nM, RXRa partner concentration 90 nM) | sequence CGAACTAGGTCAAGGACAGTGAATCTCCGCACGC
Result: 2.29

###

test system: PXR:RXRa (NR concentration 270 nM, RXRa partner concentration 90 nM); experiment: PBM binding z-score (relative to random genomic background probes); higher = stronger binding; sequences stand for … in GC…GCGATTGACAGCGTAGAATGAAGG
quantity: PBM binding z-score
Answers are plain numbers.

Below, 6 sequences whose answers are already recorded.
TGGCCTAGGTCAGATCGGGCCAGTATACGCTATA
0.928
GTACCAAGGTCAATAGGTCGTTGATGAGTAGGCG
4.09
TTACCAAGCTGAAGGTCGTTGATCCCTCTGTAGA
1
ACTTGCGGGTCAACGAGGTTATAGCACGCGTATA
4.86
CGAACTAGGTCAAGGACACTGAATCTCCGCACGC
1.44
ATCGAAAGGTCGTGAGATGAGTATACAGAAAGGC
3

For each listed entry, give its PBM binding z-score.
1. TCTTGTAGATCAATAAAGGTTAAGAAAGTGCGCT
2. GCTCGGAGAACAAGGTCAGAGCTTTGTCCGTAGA
3. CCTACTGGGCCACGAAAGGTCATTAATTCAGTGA
4. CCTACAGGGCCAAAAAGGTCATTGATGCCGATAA

Result:
1: 3.04; 2: 1.73; 3: 5.12; 4: 5.28
